- System: SGPC
- PROTOCOL DETAILS: Substrate specificity of SGPC with tetrapeptide substrates sAAPXpNA
- Assay type: biochemical, Streptomyces griseus
- ASSAY CONDITIONS: pH 8.0, 10% DMSO, 24° C.
- Procedure: The enzyme was assayed with a series of tetrapeptide substrates which had the form succinyl-Ala-Ala-Pro-X-para-nitroanilide (sAAPXpNA) (SEQ ID NOS. 3-20), where X is the P1 amino acid (the residue found on the N-terminal side of the bond which is cleaved). Kinetics constants kcat and Km were determined by assaying an appropriate dilution of SGPC with eight different concentrations of each substrate. […]
*1 amine or outer side, *2 acyl side, *3 side chain or, on linkers, in order; H or OH if unused. Where a SMILES comes first, the peptide text is derived from it. The star is where a group is joined. pNA = O=[N+]([O-])c1ccc(N*)cc1; Suc = O=C(CCC(=O)[*:2])[*:1]
READOUT LABEL: kcat /Km

For orientation, consider the following solved cases.
INSERT INTO assay_data (compound, readout_label, test_result) VALUES
  ('CC(C)[C@H](NC(=O)[C@@H]1CCCN1C(=O)[C@H](C)NC(=O)[C@H](C)NC(=O)CCC(=O)O)C(=O)Nc1ccc([N+](=O)[O-])cc1 [sAAPVpNA] (Suc-AAPV-pNA)', 'kcat /Km', '1,422 M^-1 S^-1'),
  ('CSCC[C@H](NC(=O)[C@@H]1CCCN1C(=O)[C@H](C)NC(=O)[C@H](C)NC(=O)CCC(=O)O)C(=O)Nc1ccc([N+](=O)[O-])cc1 [sAAPMpNA] (Suc-AAPM-pNA)', 'kcat /Km', '100,400 M^-1 S^-1'),
  ('C[C@H](NC(=O)CCC(=O)O)C(=O)N[C@@H](C)C(=O)N1CCC[C@H]1C(=O)N[C@@H](CCCNC(=N)N)C(=O)Nc1ccc([N+](=O)[O-])cc1 [sAAPRpNA] (Suc-AAPR-pNA)', 'kcat /Km', '4,001 M^-1 S^-1'),
  ('C[C@H](NC(=O)CCC(=O)O)C(=O)N[C@@H](C)C(=O)N1CCC[C@H]1C(=O)N[C@@H](CC(=O)O)C(=O)Nc1ccc([N+](=O)[O-])cc1 [sAAPDpNA] (Suc-AAPD-pNA)', 'kcat /Km', '351 M^-1 S^-1');

Query compound follows.
INPUT: Please provide the recorded kcat /Km for C[C@H](NC(=O)CCC(=O)O)C(=O)N[C@@H](C)C(=O)N1CCC[C@H]1C(=O)N[C@@H](CCC(N)=O)C(=O)Nc1ccc([N+](=O)[O-])cc1 [sAAPQpNA] (Suc-AAPQ-pNA) , tested on SGPC.
OUTPUT: 2,547 M^-1 S^-1

* * *

- Tested on: SGPC
- PROTOCOL DETAILS: Substrate specificity of SGPC with tetrapeptide substrates sAAPXpNA
- Format: biochemical, Streptomyces griseus
- ASSAY CONDITIONS: pH 8.0, 10% DMSO, 24° C.
*1 amine or outer side, *2 acyl side, *3 side chain or, on linkers, in order; H or OH if unused. Where a SMILES comes first, the peptide text is derived from it. The star is where a group is joined. pNA = O=[N+]([O-])c1ccc(N*)cc1; Suc = O=C(CCC(=O)[*:2])[*:1]
READOUT LABEL: kcat /Km

Before answering, review these 4 worked examples.
INSERT INTO results (compound, test_result) VALUES
  ('C[C@H](NC(=O)CCC(=O)O)C(=O)N[C@@H](C)C(=O)N1CCC[C@H]1C(=O)N[C@@H](Cc1cnc[nH]1)C(=O)Nc1ccc([N+](=O)[O-])cc1 [sAAPHpNA] (Suc-AAPH-pNA)', '21,960 M^-1 S^-1'),
  ('C[C@H](NC(=O)CCC(=O)O)C(=O)N[C@@H](C)C(=O)N1CCC[C@H]1C(=O)N[C@@H](CCCCN)C(=O)Nc1ccc([N+](=O)[O-])cc1 [sAAPKpNA] (Suc-AAPK-pNA)', '2,577 M^-1 S^-1'),
  ('C[C@H](NC(=O)CCC(=O)O)C(=O)N[C@@H](C)C(=O)N1CCC[C@H]1C(=O)N[C@@H](Cc1ccc(O)cc1)C(=O)Nc1ccc([N+](=O)[O-])cc1 [sAAPYpNA] (Suc-AAPY-pNA)', '61,770 M^-1 S^-1'),
  ('C[C@H](NC(=O)CCC(=O)O)C(=O)N[C@@H](C)C(=O)N1CCC[C@H]1C(=O)N[C@@H](CC(N)=O)C(=O)Nc1ccc([N+](=O)[O-])cc1 [sAAPNpNA] (Suc-AAPN-pNA)', '12,160 M^-1 S^-1');

INPUT: Provide value of kcat /Km for this record tested with SGPC: CC(C)C[C@H](NC(=O)[C@@H]1CCCN1C(=O)[C@H](C)NC(=O)[C@H](C)NC(=O)CCC(=O)O)C(=O)Nc1ccc([N+](=O)[O-])cc1 [sAAPLpNA] (Suc-AAPL-pNA)
OUTPUT: 27,030 M^-1 S^-1

INPUT: What kcat /Km appears in the records for this compound with SGPC? C[C@H](NC(=O)CCC(=O)O)C(=O)N[C@@H](C)C(=O)N1CCC[C@H]1C(=O)N[C@@H](C)C(=O)Nc1ccc([N+](=O)[O-])cc1 [sAAPApNA] (Suc-AAPA-pNA)
OUTPUT: 6,826 M^-1 S^-1
